Ref: PubChem BioAssay (NCI)

Each entry below carries its reported growth.
- Test system: MCF7 breast
- protocolText: NCI-60 one-dose screen, 48 h (100 = growth as untreated, 0 = no growth, -100 = all killed)
- testParameters: 10 µM unless noted
- Method: Growth inhibition of the MCF7 human tumor cell line is measured as a screen for anti-cancer activity. Cells are grown in 96 well plates and exposed to the test compound for 48 hours. Compounds are tested at a single concentration, which is 10^-5 M for most compounds. The reported endpoint is percent growth (GI% or GIPRCNT), where numbers from 0 - 100% represent growth inhibition, and numbers from -100% - 0 represent cell death. For example, a value of 40 represents 60% growth inhibition. […]
The panel holds about 83,000 compounds, 20% with a hit somewhere; the sample as a whole holds those more often. Active and inactive are the calls of the source. Rule for the calls: active = growth percent below 10; inactive = the rest.

1. Cn1cc(-c2csc(-c3cccc(F)c3)n2)c2cccnc21: -62% [100 µM] (active)

Item under review: `Cc1cc(/C=C\c2ccc3ccccc3[n+]2C)c(O)c2ncccc12` . Reported growth? 5.19% (active)

Item under review: `Nc1n[nH]c(-c2cc(Cl)ccc2O)c1-c1ccccc1` . Reported growth? 92.7% (inactive)

Item under review: `N=C1C(c2nc(-c3ccc(Br)cc3)cs2)=C(O)CN1Cc1cccnc1` . Reported growth? 77.9% (inactive)

Item under review: `COC(=O)[C@H](CSC)N(C)C(=O)[C@@H]1CSSC[C@@H](NC(=O)c2nc3ccccc3cc2O)C(=O)NCC(=O)N1C` . Reported growth? 79.4% (inactive)

Item under review: `CCN(CC)CCCCCCNc1cc(OC)c(Cl)c2cccnc12` . Reported growth? 66.7% (inactive)

Item under review: `N/C(=N\c1nc2ccccc2s1)NC(=O)Nc1cccc(Cl)c1` . Reported growth? 21.2% (inactive)

Item under review: N#Cc1c2c(nn(-c3ccccc3)c1=O)C(O)=C([N+](=O)[O-])C(c1ccccc1)C2 (centres undefined) . Reported growth? 24.4% (inactive)

Item under review: O=c1cc(C2NNC(=S)N2)c2ccc3ccccc3c2o1 (centres undefined) . Reported growth? 86.9% (inactive)

Item under review: `O=C(N/N=C/c1ccncc1)c1ccc(C(F)(F)F)nc1Nc1cccc(C(F)(F)F)c1` . Reported growth? -14.5% (active)

Item under review: Cn1c2c(c3ccc(Cl)c(Cl)c31)C(C#N)C1(CCNCC1)NC2=O (centres undefined) . Reported growth? -12.3% (active)

Item under review: `NC[C@H](O)c1ccc(O)c(O)c1` . Reported growth? 110% (inactive)

Item under review: `O=[N+]([O-])c1ccc(N2c3ccncc3Sc3ccncc32)cc1` . Reported growth? 101% (inactive)

Item under review: `CCCCCCCCCCN(CCCCCCCCCC)CC(=O)c1ccc2cc(Br)c3ccccc3c2c1` . Reported growth? 99% (inactive)
